The measurements presented in this section are drawn from patent US9510598B2.

Type: physicochemical
Conditions: HPLC on reversed phase columns, method [a]: pH 2.7, 0.1% formic acid in water / acetonitrile, linear gradient 10% to 95% acetonitrile
Recorded Endpoint: log P

INSERT INTO assay_data (compound, recorded_endpoint, experimental_value) VALUES
  ('Cc1cccc(C(NC(=O)C2(C)CC(c3ccc4ncc(Br)cc4c3)=NO2)C(F)(F)F)c1 (centres unmarked)', 'log P', '4.36[a]'),
  ('C#Cc1cnc2ccc(C3=NOC(C)(C(=O)NCCCOCC(F)(F)F)C3)cc2c1 (centres unmarked)', 'log P', '2.77[a]'),
  ('CC1(C(=O)NCC#Cc2ccc(Cl)cc2)CC(c2ccc3ncc(Br)cc3c2)=NO1 (centres unmarked)', 'log P', '4.06^[a]'),
  ('C#CC1(NC(=O)C2(C)CC(c3ccc4ncc(Br)cc4c3)=NO2)CCCCC1 (centres unmarked)', 'log P', '3.9^[a]'),
  ('COc1ccc(CNC(=O)C2(C)CC(c3ccc4ncc(Br)cc4c3)=NO2)nc1 (centres unmarked)', 'log P', '2.20[a]'),
  ('C=C(C)C1(C(=O)NCC2COC(C)(C)O2)CC(c2ccc3ncc(Br)cc3c2)=NO1 (centres unmarked)', 'log P', '3.29[a]'),
  ('C#Cc1cnc2ccc(C3=NOC(C)(C(=S)NCC4COC(C)(C)O4)C3)cc2c1 (centres unmarked)', 'log P', '3.44[a]'),
  ('C#Cc1cnc2ccc(C3=NOC(C)(C(=O)NCc4cn(CCCCC)nc4C)C3)cc2c1 (centres unmarked)', 'log P', '2.96[a]'),
  ('C=C(C)C1(C(=O)NCc2cn(CCC)nc2C)CC(c2ccc3ncc(Br)cc3c2)=NO1 (centres unmarked)', 'log P', '3.17[a]'),
  ('CC(C)NC(=O)C1(C)CC(c2cc(Cl)c3ncc(Br)cc3c2)=NO1 (centres unmarked)', 'log P', '3.29[a]'),
  ('C#Cc1cnc2ccc(C3=NOC(C)(C(=O)NCc4ccc5ccccc5n4)C3)cc2c1 (centres unmarked)', 'log P', '2.45^[a]'),
  ('CC(NC(=O)C1(C)CC(c2ccc3ncc(Br)cc3c2)=NO1)c1ccsc1 (centres unmarked)', 'log P', '3.35[a]'),
  ('CC1(C(=O)NC(c2cccc(Cl)c2)C(F)(F)F)CC(c2ccc3ncc(Br)cc3c2)=NO1 (centres unmarked)', 'log P', '4.39[a]'),
  ('C#Cc1cnc2ccc(C3=NOC(C)(C(=O)NC(C)(C)C(C)C)C3)cc2c1 (centres unmarked)', 'log P', '3.71[a]');
